Provide the recorded Ratio IC50 for the entries that follow.
- Assay Explanation: Resistance index, ratio of IC50 for chloroquine-resistant Plasmodium falciparum W2 to IC50 for chloroquine-sensitive Plasmodium falciparum D10
- Format: functional
Could you keep your reply to the number by itself?

Sample CCN(CC)Cc1cnc(CNc2ccnc3cc(Cl)ccc23)[nH]1 — what was its Ratio IC50?
19.9

Sample Fc1ccc(-c2nc(CNc3ccnc4cc(Cl)ccc34)[nH]c2CN2CCCC2)cc1 — what was its Ratio IC50?
7.7

Sample Clc1ccc2c(Nc3ccc(CN4CCCC4)s3)ccnc2c1 — what was its Ratio IC50?
1.6

Sample Clc1ccc2c(NCc3nc(-c4ccccc4)co3)ccnc2c1 — what was its Ratio IC50?
1.9

Sample Cc1ccc(-c2nc(CNc3ccnc4cc(Cl)ccc34)[nH]c2CN2CCCC2)cc1 — what was its Ratio IC50?
9.4

Sample Clc1ccc2c(NCc3nc(-c4ccc(N5CCCC5)cc4)c[nH]3)ccnc2c1 — what was its Ratio IC50?
1.9

Sample CCN(CC)Cc1[nH]c(CNc2ccnc3cc(Cl)ccc23)nc1-c1ccc(Cl)cc1 — what was its Ratio IC50?
3.1

Sample Clc1ccc2c(NCc3nc(-c4ccccc4)c(CN4CCCC4)s3)ccnc2c1 — what was its Ratio IC50?
3.1

* * *

Provide the recorded selectivity ratio for the entries that follow.
- Assay Explanation: Selectivity index, ratio of IC50 for human HMEC1 cells to IC50 for chloroquine-resistant Plasmodium falciparum W2
- Type: toxicity, cell-based
- Run Parameters: read-out: Ratio IC50
Could you keep your reply to the number by itself?

Sample Clc1ccc(-c2c[nH]c(CNc3ccnc4cc(Cl)ccc34)n2)cc1 — what was its selectivity ratio?
123

Sample Clc1ccc2c(NCc3nc(-c4ccccc4)c(CN4CCCC4)s3)ccnc2c1 — what was its selectivity ratio?
506

Sample Cc1ccc(-c2c[nH]c(CNc3ccnc4cc(Cl)ccc34)n2)cc1 — what was its selectivity ratio?
191

Sample CCN(CC)Cc1[nH]c(CNc2ccnc3cc(Cl)ccc23)nc1-c1ccccc1 — what was its selectivity ratio?
107

Sample Cn1c(CNc2ccnc3cc(Cl)ccc23)nc(-c2ccccc2)c1CN1CCCC1 — what was its selectivity ratio?
1080

Sample Clc1ccc2c(NCc3nc(-c4ccccc4)c[nH]3)ccnc2c1 — what was its selectivity ratio?
154

Sample Cn1cc(-c2ccccc2)nc1CNc1ccnc2cc(Cl)ccc12 — what was its selectivity ratio?
249

Sample Fc1ccc(-c2c[nH]c(CNc3ccnc4cc(Cl)ccc34)n2)cc1 — what was its selectivity ratio?
120

Sample Clc1ccc2c(NCc3nc(-c4ccc(N5CCCC5)cc4)c[nH]3)ccnc2c1 — what was its selectivity ratio?
69

Sample Clc1ccc(-c2nc(CNc3ccnc4cc(Cl)ccc34)[nH]c2CN2CCCC2)cc1 — what was its selectivity ratio?
76

Sample CN(C)c1cccc(-c2c[nH]c(CNc3ccnc4cc(Cl)ccc34)n2)c1 — what was its selectivity ratio?
168

Sample CCN(CC)Cc1[nH]c(CNc2ccnc3cc(Cl)ccc23)nc1-c1ccc(Cl)cc1 — what was its selectivity ratio?
89

Sample Clc1ccc2c(NCc3nc4ccccc4[nH]3)ccnc2c1 — what was its selectivity ratio?
9

Sample CN(C)c1ccc(-c2c[nH]c(CNc3ccnc4cc(Cl)ccc34)n2)cc1 — what was its selectivity ratio?
320

Sample Clc1ccc2c(NCc3nc(-c4ccccc4)c(CN4CCCC4)[nH]3)ccnc2c1 — what was its selectivity ratio?
95

Sample Cc1ccc(-c2nc(CNc3ccnc4cc(Cl)ccc34)[nH]c2CN2CCCC2)cc1 — what was its selectivity ratio?
53

Sample Clc1ccc2c(NCc3ccc(CN4CCCC4)s3)ccnc2c1 — what was its selectivity ratio?
921

* * *

- Test system: Plasmodium falciparum
- Assay Explanation: Antiplasmodial activity against chloroquine-resistant Plasmodium falciparum W2 infected in human red blood cells after 72 hrs by parasite lactate dehydrogenase assay
- Assay type: functional, organism-based
- Run Parameters: W2, 72 h
Quantity Name: pIC50
pIC50 here: minus log base 10 of the concentration, concentration in moles per litre.

Sample Clc1ccc2c(NCc3nc(-c4ccccc4)c[nH]3)ccnc2c1 — what was its pIC50?
7.07

Sample Clc1ccc(-c2nc(CNc3ccnc4cc(Cl)ccc34)[nH]c2CN2CCCC2)cc1 — what was its pIC50?
7.57

Sample Clc1ccc2c(NCc3nc(-c4ccc(N5CCCC5)cc4)c[nH]3)ccnc2c1 — what was its pIC50?
7.45

* * *

- Assay Explanation: Resistance index, ratio of IC50 for chloroquine-resistant Plasmodium falciparum W2 to IC50 for chloroquine-sensitive Plasmodium falciparum D10
- Assay type: functional
Quantity Name: Ratio IC50
Could you keep your reply to the number by itself?

Sample CCN(CC)Cc1[nH]c(CNc2ccnc3cc(Cl)ccc23)nc1-c1ccccc1 — what was its Ratio IC50?
3.1

Sample Clc1ccc2c(NCc3nc(-c4ccccc4)c[nH]3)ccnc2c1 — what was its Ratio IC50?
0.7

Sample Clc1ccc2c(NCc3ncc(CN4CCCC4)[nH]3)ccnc2c1 — what was its Ratio IC50?
7.8

Sample Clc1ccc(-c2nc(CNc3ccnc4cc(Cl)ccc34)[nH]c2CN2CCCC2)cc1 — what was its Ratio IC50?
4.9

Sample Fc1ccc(-c2c[nH]c(CNc3ccnc4cc(Cl)ccc34)n2)cc1 — what was its Ratio IC50?
1.6

Sample Clc1ccc2c(NCc3ncc[nH]3)ccnc2c1 — what was its Ratio IC50?
2.5

Sample Clc1ccc(-c2c[nH]c(CNc3ccnc4cc(Cl)ccc34)n2)cc1 — what was its Ratio IC50?
2.3

Sample Clc1ccc2c(NCc3ccc(CN4CCCC4)s3)ccnc2c1 — what was its Ratio IC50?
2.1

Sample Cc1ccc(-c2c[nH]c(CNc3ccnc4cc(Cl)ccc34)n2)cc1 — what was its Ratio IC50?
2.4

Sample Clc1ccc2c(NCc3nc4ccccc4[nH]3)ccnc2c1 — what was its Ratio IC50?
3.6

Sample Cn1c(CNc2ccnc3cc(Cl)ccc23)nc(-c2ccccc2)c1CN1CCCC1 — what was its Ratio IC50?
2.2

* * *

Provide the recorded IC50 for the entries that follow.
- Tested on: Plasmodium falciparum
- Assay Explanation: Antiplasmodial activity against chloroquine-resistant Plasmodium falciparum W2 infected in human red blood cells after 72 hrs by parasite lactate dehydrogenase assay
- Assay type: functional, organism-based
- Run Parameters: W2, 72 h
# unit: µM | format: bare number

Sample CCN(CC)Cc1ccc(Nc2ccnc3cc(Cl)ccc23)s1 — what was its IC50?
2.58

Sample Fc1ccc(-c2c[nH]c(CNc3ccnc4cc(Cl)ccc34)n2)cc1 — what was its IC50?
0.0824

Sample Clc1ccc2c(NCc3nc(-c4ccccc4)c(CN4CCCC4)s3)ccnc2c1 — what was its IC50?
0.0601

Sample Fc1ccc(-c2nc(CNc3ccnc4cc(Cl)ccc34)[nH]c2CN2CCCC2)cc1 — what was its IC50?
0.197

Sample Clc1ccc2c(NCc3nc4ccccc4[nH]3)ccnc2c1 — what was its IC50?
0.256

Sample Cc1ccc(-c2nc(CNc3ccnc4cc(Cl)ccc34)[nH]c2CN2CCCC2)cc1 — what was its IC50?
0.0693

Sample CN(C)c1cccc(-c2c[nH]c(CNc3ccnc4cc(Cl)ccc34)n2)c1 — what was its IC50?
0.0535

Sample Clc1ccc2c(NCc3ccc(CN4CCCC4)s3)ccnc2c1 — what was its IC50?
0.0263

Sample CCN(CC)Cc1[nH]c(CNc2ccnc3cc(Cl)ccc23)nc1-c1ccc(Cl)cc1 — what was its IC50?
0.0276

Sample CCN(CC)Cc1cnc(CNc2ccnc3cc(Cl)ccc23)[nH]1 — what was its IC50?
3.8

Sample Clc1ccc2c(NCc3nc(-c4ccccc4)co3)ccnc2c1 — what was its IC50?
0.513

Sample Cn1c(CNc2ccnc3cc(Cl)ccc23)nc(-c2ccccc2)c1CN1CCCC1 — what was its IC50?
0.0265

Sample Clc1ccc2c(NCc3ncc[nH]3)ccnc2c1 — what was its IC50?
0.384

Sample CN(C)c1ccc(-c2c[nH]c(CNc3ccnc4cc(Cl)ccc34)n2)cc1 — what was its IC50?
0.0209

Sample Cc1ccc(-c2c[nH]c(CNc3ccnc4cc(Cl)ccc34)n2)cc1 — what was its IC50?
0.0407

Sample Clc1ccc2c(NCc3nc(-c4ccccc4)cs3)ccnc2c1 — what was its IC50?
0.396

Sample Clc1ccc(-c2c[nH]c(CNc3ccnc4cc(Cl)ccc34)n2)cc1 — what was its IC50?
0.0605

Sample Clc1ccc2c(NCc3nc(-c4ccccc4)c(CN4CCCC4)[nH]3)ccnc2c1 — what was its IC50?
0.0916

Sample CCN(CC)Cc1[nH]c(CNc2ccnc3cc(Cl)ccc23)nc1-c1ccccc1 — what was its IC50?
0.0858

Sample Clc1ccc2c(Nc3ccc(CN4CCCC4)s3)ccnc2c1 — what was its IC50?
4.22

Sample Cn1cc(-c2ccccc2)nc1CNc1ccnc2cc(Cl)ccc12 — what was its IC50?
0.0703

Sample Clc1ccc2c(NCc3ncc(CN4CCCC4)[nH]3)ccnc2c1 — what was its IC50?
3.12

* * *

- Assay Explanation: n-octanol-KCl distribution coefficient, log D of the compound at pH 7.4
- Format: physicochemical
Quantity Name: logD
Could you keep your reply to the number by itself?

Sample Clc1ccc2c(NCc3nc(-c4ccccc4)c(CN4CCCC4)[nH]3)ccnc2c1 — what was its logD?
4.22

Sample Fc1ccc(-c2c[nH]c(CNc3ccnc4cc(Cl)ccc34)n2)cc1 — what was its logD?
4.93

Sample Clc1ccc2c(NCc3ncc[nH]3)ccnc2c1 — what was its logD?
2.39

Sample Clc1ccc2c(NCc3ncc(CN4CCCC4)[nH]3)ccnc2c1 — what was its logD?
1.42

Sample Cc1ccc(-c2c[nH]c(CNc3ccnc4cc(Cl)ccc34)n2)cc1 — what was its logD?
4.66

Sample Cc1ccc(-c2nc(CNc3ccnc4cc(Cl)ccc34)[nH]c2CN2CCCC2)cc1 — what was its logD?
4

Sample CN(C)c1ccc(-c2c[nH]c(CNc3ccnc4cc(Cl)ccc34)n2)cc1 — what was its logD?
4.75

Sample Clc1ccc2c(NCc3nc(-c4ccccc4)c(CN4CCCC4)s3)ccnc2c1 — what was its logD?
6.01

Sample Clc1ccc2c(NCc3nc4ccccc4[nH]3)ccnc2c1 — what was its logD?
3.56

Sample CN(C)c1cccc(-c2c[nH]c(CNc3ccnc4cc(Cl)ccc34)n2)c1 — what was its logD?
5.48

Data origin: ChEMBL document CHEMBL2146461
